# RUN DESCRIPTION: GDH-TPI coupling enzyme inhibitors, primary screen, artefact control for M. tuberculosis FBA inhibitor project, biochemical, absorbance, full deck (AID 588335);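 note: 0% = DMSO wells and 100% = wells lacking the enzyme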
# EXPERIMENTAL CONDITIONS: GDH-TPI coupled enzyme counterscreen, NADH absorbance; at 4.8 µM
Out of some 360,000 compounds screened, about 4,500 (1.2%) were called active. Cut-off read from the data, not from the text of the source: active = inhibition above about 30%; inactive = the rest. The sample holds actives, similar compounds and a random draw of the others, so the mix is not that of the screen.
Permitted responses: y (active), n (inactive)

[Q] Identify the outcome logged in this assay for the molecule shown: Cc1ccc(CNC(=O)CCNC(=O)Cn2ccc3ccccc3c2=O)cc1
[A] n

[Q] Identify the outcome logged in this assay for the molecule shown: O=C(COC(=O)c1ccc(N2CCCC2=O)cc1)c1ccc(OC(F)F)cc1
[A] n

[Q] Identify the outcome logged in this assay for the molecule shown: CSC1=N/C(=C\C=C\c2cccs2)C(=O)S1
[A] n

[Q] Identify the outcome logged in this assay for the molecule shown: O=C(N/N=C/c1c(O)n(C2CC2)c(=S)[nH]c1=O)c1ccccc1Cl
[A] y

[Q] Identify the outcome logged in this assay for the molecule shown: CC(C)(C)c1nnc2sc(SCC(O)=C(C#N)c3nc4ccccc4[nH]3)nn2c1=O
[A] n

[Q] Identify the outcome logged in this assay for the molecule shown: O=C1CC(C(=O)O)NC(=S)N1 (centres undefined)
[A] n

[Q] Identify the outcome logged in this assay for the molecule shown: O=C(NCCCNC(=O)c1ccccc1Cl)c1cnccn1
[A] n

[Q] Identify the outcome logged in this assay for the molecule shown: CCc1ccc(C(=O)C(C)OC(=O)CN2C(=O)NC3(CCCC3)C2=O)cc1 (centres undefined)
[A] n

[Q] Identify the outcome logged in this assay for the molecule shown: C[C@H]1CN([C@@H](C)CO)C(=O)CCCn2cc(nn2)CO[C@@H]1CN(C)S(=O)(=O)c1ccc(-c2ccccc2)cc1
[A] n

[Q] Identify the outcome logged in this assay for the molecule shown: CCN(CC)CCNc1nc(-c2ccc(OC(F)F)cc2)c(C)s1
[A] n

[Q] Identify the outcome logged in this assay for the molecule shown: CCCc1ccc(C(O)c2ncc(-c3cccc(OC)c3)[nH]2)cc1 (centres undefined)
[A] n

[Q] Identify the outcome logged in this assay for the molecule shown: CCSC(C)CC1C/C(=N/O)c2c(C)noc2C1 (centres undefined)
[A] n

[Q] Identify the outcome logged in this assay for the molecule shown: COC(=O)c1cc(S(=O)(=O)N2CCC(C(N)=O)CC2)oc1C
[A] n

[Q] Identify the outcome logged in this assay for the molecule shown: CCNC(=O)c1ccc(OCC(=O)Nc2ccc(F)cc2)c(OC)c1
[A] n

[Q] Identify the outcome logged in this assay for the molecule shown: CC(C)CNC(=O)C(=O)NCC(c1ccc2c(c1)OCO2)N1CCOCC1 (centres undefined)
[A] n

[Q] Identify the outcome logged in this assay for the molecule shown: Cc1ccc(N2C(=O)C3C4C=CC(CC4)C3C2=O)cc1Cl (centres undefined)
[A] n

[Q] Identify the outcome logged in this assay for the molecule shown: C/C(=C(\C#N)C(=O)NCCCN1CCOCC1)N(C)C
[A] n

[Q] Identify the outcome logged in this assay for the molecule shown: COc1ccc(C(=O)NCC2CCCCC2)cc1S(=O)(=O)N1CCCC1
[A] n

[Q] Identify the outcome logged in this assay for the molecule shown: CCCCN(C(=O)c1ccc2ccccc2c1)c1c(N)n(CCCC)c(=O)[nH]c1=O
[A] n

[Q] Identify the outcome logged in this assay for the molecule shown: O=S(=O)(Cc1nnnn1-c1ccccc1)c1ccccc1
[A] n

[Q] Identify the outcome logged in this assay for the molecule shown: COCCN(CCOC)S(=O)(=O)c1ccc(/C(O)=C(\C#N)c2nc3ccccc3[nH]2)cc1
[A] y

[Q] Identify the outcome logged in this assay for the molecule shown: COc1cccc(N2CCN(c3ccc4nnc(CCC(=O)N5CCN(C)CC5)n4n3)CC2)c1
[A] n

[Q] Identify the outcome logged in this assay for the molecule shown: CN(C)c1ccc(NC(=O)CN2C3CCCC2CC(NC(=O)c2ccccc2)C3)cc1 (centres undefined)
[A] n

[Q] Identify the outcome logged in this assay for the molecule shown: COc1cc(OC)c(OC)cc1CN1CCN(C(=O)c2cccc3ccccc23)CC1
[A] n

[Q] Identify the outcome logged in this assay for the molecule shown: C/C(=N\NC(=S)Nc1ccc(C)cc1)c1cc2ccccc2o1
[A] y

[Q] Identify the outcome logged in this assay for the molecule shown: CCCc1nc(N2CCN(C)CC2)c2sc(=S)n(-c3ccccc3)c2n1
[A] n

[Q] Identify the outcome logged in this assay for the molecule shown: Cc1ccc(C(=O)CN2C(=O)NC3(CCc4ccccc43)C2=O)c(C)c1 (centres undefined)
[A] n

[Q] Identify the outcome logged in this assay for the molecule shown: Cn1cnnc1Sc1ccc(S(C)(=O)=O)cc1[N+](=O)[O-]
[A] n

[Q] Identify the outcome logged in this assay for the molecule shown: COCCN(CCOC)S(=O)(=O)c1ccc(C(=O)Nc2nc3c(s2)CCc2ccccc2-3)cc1
[A] n

[Q] Identify the outcome logged in this assay for the molecule shown: O=C(NCc1cccnc1)c1cc(C2CCCN(C(=O)CCCc3ccccc3)C2)on1 (centres undefined)
[A] n

[Q] Identify the outcome logged in this assay for the molecule shown: Cc1ccc(C)c(NC(=O)NNC(=O)c2ccc3ccccc3c2O)c1
[A] n

[Q] Identify the outcome logged in this assay for the molecule shown: CC(=O)Nc1ccc(S(=O)(=O)NCC(=O)OCC(=O)c2ccc[nH]2)cc1
[A] n

[Q] Identify the outcome logged in this assay for the molecule shown: Cc1cccc(N2CCN(C(=O)CCS(=O)(=O)c3ccc4c(c3)NC(=O)C(C)S4)CC2)c1C (centres undefined)
[A] n

[Q] Identify the outcome logged in this assay for the molecule shown: CCOc1cc2c(Cl)ncnc2c(OCC)c1OCC
[A] n

###

# RUN DESCRIPTION: GDH-TPI coupling enzyme inhibitors, primary screen, artefact control for M. tuberculosis FBA inhibitor project, biochemical, absorbance, full deck (AID 588335);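 note: 0% = DMSO wells and 100% = wells lacking the enzyme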
# EXPERIMENTAL CONDITIONS: GDH-TPI coupled enzyme counterscreen, NADH absorbance; at 4.8 µM; stronger effect = higher value
About 4,500 (1.2%) of roughly 360,000 compounds were called active. This excerpt belongs to a sample that is enriched for actives.
MEASUREMENT TYPE: inhibition (%)
# value in %; strip the unit string

Record summary for O=C(CNC(=O)c1cccnc1)N/N=C/c1cc(Br)c(O)c(Br)c1 : reported inhibition = 42

Record summary for COc1cccc(C(=O)Nc2nnc(S(=O)(=O)N3CCCCC3)s2)c1 : reported inhibition = 40.7

Record summary for CCN(CC)c1ccc(/C=N/NC(=O)CNC(=O)c2cccnc2)cc1 : reported inhibition = 33.1

Record summary for COc1ccc(/C=C(/NC(=O)c2ccc(C)cc2)c2nc3ccccc3[nH]2)cc1OC : reported inhibition = 46.6

Record summary for CCOc1ccc(-n2c(SCC(=O)Nc3ccc(OC)cc3)nc3sc4c(c3c2=O)CCN(C)C4)cc1 : reported inhibition = 19.9

Record summary for CCOc1ccccc1-c1cc(C(=O)N/N=C(\C)c2cccnc2)c2ccccc2n1 : reported inhibition = 19.2

Record summary for O=C(Nc1nnc(S(=O)(=O)N2CCCCCC2)s1)c1cccc(Br)c1 : reported inhibition = 16.8

Record summary for C/C(=N\NC(=O)c1cccc([N+](=O)[O-])c1)c1cccnc1 : reported inhibition = 3.57

Record summary for O=C(Nc1ccc(F)c([N+](=O)[O-])c1)C1CCCO1 (configuration not stated) : reported inhibition = 7.32

Record summary for Cc1nc2ccc(S(=O)(=O)N(C)CC(=O)NC(C)c3ccccc3)cc2s1 (configuration not stated) : reported inhibition = 14.8

Record summary for CCN(CC)CC(=O)Nc1nn(-c2ccccc2)nc1C(N)=O : reported inhibition = -4.59

Record summary for Cc1cccc(OCC(=O)NCCNC(=O)c2cccnc2)c1 : reported inhibition = -7.55

Record summary for COc1cccc(C(=O)Nc2nnc(S(=O)(=O)N3CCOCC3)s2)c1 : reported inhibition = 23.5

Record summary for COc1cc(NC(=O)CCNC(=O)Cn2ccc3ccccc3c2=O)cc(OC)c1OC : reported inhibition = -1.5

Record summary for CCSc1nc2sc3c(c2c(=O)n1-c1ccc(C)cc1)CCN(C)C3 : reported inhibition = 30.7

Record summary for O=C(CNC(=O)C1COc2ccccc2O1)N/N=C/c1cc(Br)c(O)c(Br)c1 (configuration not stated) : reported inhibition = 33.5

Record summary for C/C(=N\NC(=O)c1cccnc1)c1ccc(-n2ccnc2)cc1 : reported inhibition = 12.6

###

# RUN DESCRIPTION: GDH-TPI coupling enzyme inhibitors, primary screen, artefact control for M. tuberculosis FBA inhibitor project, biochemical, absorbance, full deck (AID 588335);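 note: 0% = DMSO wells and 100% = wells lacking the enzyme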
# EXPERIMENTAL CONDITIONS: GDH-TPI coupled enzyme counterscreen, NADH absorbance; at 4.8 µM; stronger effect = higher value
Out of some 360,000 compounds screened, about 4,500 (1.2%) were called active. What follows is part of a selection rich in actives, with near analogues and random picks from the rest.
Please provide measured inhibition for the entries that follow.
# value in %; strip the unit string

Record summary for COc1ccc(C2=NS(=O)(=O)N(C)C(C(=O)NC(C)c3ccccc3)=C2)cc1 (configuration not stated) : reported inhibition = 23.1

Record summary for COc1cc(NC(=O)C2=CC(c3ccco3)=NS(=O)(=O)N2C)cc(OC)c1OC : reported inhibition = 30.4

Record summary for COCCNc1cc(NCCOC)c([N+](=O)[O-])cc1[N+](=O)[O-] : reported inhibition = 15.1

Record summary for O=C(Cc1ccsc1)N1CCN(S(=O)(=O)c2cc(C(F)(F)F)cc(C(F)(F)F)c2)CC1 : reported inhibition = 6.47

Record summary for COC(=O)c1sc2[nH]c(=S)n(N)c(=O)c2c1C : reported inhibition = 31.6

Record summary for COc1ccc(N2CCN(CCNC(=O)c3nnc(Cc4c(F)cccc4Cl)o3)CC2)cc1 : reported inhibition = 5.33

Record summary for Cc1cc2nc(-c3ccc(NC(=O)c4cccnc4)cc3)oc2cc1C : reported inhibition = 34.4

Record summary for O=C(O)c1ccc2c(=O)n3c(nc2c1)/C(=C/c1ccc(Cl)c([N+](=O)[O-])c1)CC3 : reported inhibition = -3.69

Record summary for COc1ccc(C2=NS(=O)(=O)N(C)C(C(=O)N(C)Cc3ccccc3)=C2)cc1 : reported inhibition = 34

Record summary for COC(=O)c1sc(NC(=O)COC(=O)C2CCC2)c(C(=O)OC)c1C : reported inhibition = -0.7

Record summary for COc1ccc(N2CCN(CCNC(=O)Nc3cc(Cl)ccc3Cl)CC2)cc1 : reported inhibition = 5

Record summary for O=C(CNC(=O)c1ccc(Br)o1)NCC1CCCO1 (configuration not stated) : reported inhibition = -4.74

Record summary for COC(=O)C1=NN(c2ccccc2)C2C(=O)N(c3ccccc3OC)C(=O)C12 (configuration not stated) : reported inhibition = 21

Record summary for Cc1ccc(-n2nc3c(c2NC(=O)CCC2CCCCC2)CS(=O)C3)cc1 (configuration not stated) : reported inhibition = -6.57

Record summary for Oc1c(Br)cc(/C=N/NC(=S)NCC2CCCO2)cc1Br (configuration not stated) : reported inhibition = 37.8

Record summary for CCOC(=O)c1sc(NC(=O)c2ccncc2)nc1C : reported inhibition = 39.2

Record summary for O=C(N/N=C/C=C/c1ccccc1)C1CC1(c1ccccc1)c1ccccc1 (configuration not stated) : reported inhibition = 21.3

Record summary for CCOC(=O)N1CCC(NC(=O)C(C)n2c3ccccc3c3cnn(C)c(=O)c32)CC1 (configuration not stated) : reported inhibition = 1.24

Record summary for COc1cc(/C=C(/NC(=O)c2ccccc2)C(=O)Nc2cccc(O)c2)c([N+](=O)[O-])cc1OC : reported inhibition = 11.6

Record summary for Cc1ccc2oc(=O)c3cnn(CC(=O)N(Cc4ccco4)C4CCCCC4)c3c2c1 : reported inhibition = 0

Record summary for C/C(=N\NC(=O)C(N)=O)c1ccc2c(c1)OCCO2 : reported inhibition = 0.63

Record summary for Cc1ccc(-n2ncc3c2CC(C)(C)CC3NC(=O)Cc2c(C)noc2C)cc1 (configuration not stated) : reported inhibition = 2.41

Record summary for CC(=O)c1sc(NC(=O)C2=NN(c3ccccc3)C(=O)CC2)nc1C : reported inhibition = 29.1

Record summary for CC(=O)C1=C(O)C(=O)N(c2ccc(Br)cc2)C1c1ccc([N+](=O)[O-])cc1 (configuration not stated) : reported inhibition = 21.6

Record summary for COc1ccc(Cl)cc1C=CC=NNC(=O)c1ccncc1 : reported inhibition = 50

Record summary for Cc1ccc(C(=O)Nc2ccn(C)n2)cc1 : reported inhibition = -9.27

Record summary for CN(C(=O)CC(NC(=O)c1ccccc1)(c1ccccc1)c1ccccc1)c1ccccc1 : reported inhibition = -10.6

Record summary for CC(=NNC(=O)c1ccncc1)c1ccc(Cl)c(Cl)c1 : reported inhibition = 0.88

Record summary for CC1(C)CC(O)C(CCC(O)c2ccccc2)C(C)(C)N1 (configuration not stated) : reported inhibition = 11.8

Record summary for Cc1cc(OC(=O)c2ccccc2)c([N+](=O)[O-])c(=O)[nH]1 : reported inhibition = 3.89

Record summary for CCOC(=O)c1cccnc1NC(=O)c1ccncc1 : reported inhibition = -7.37

Record summary for CC(C)c1cc(C(=O)N/N=C/C(Br)=C/c2ccccc2)n[nH]1 : reported inhibition = 36.9

Record summary for O=C(/C=C/c1ccc(Cl)c([N+](=O)[O-])c1)c1ccc(O)cc1 : reported inhibition = 40.7

Record summary for C=CCSC(CC)(CC)C(N)=O : reported inhibition = 3.59

Record summary for COc1ccc(NC(=O)C2=CC(c3ccc(OC)c(OC)c3)=NS(=O)(=O)N2C)cc1 : reported inhibition = 32.7

Record summary for CC(C(=O)NC1CCCCC1)N1C(=O)c2cccc3cccc1c23 (configuration not stated) : reported inhibition = 8.59

Record summary for COc1ccc(Cl)cc1C=CC=Nc1ccc(S(N)(=O)=O)cc1 : reported inhibition = 5.17

Record summary for S=C(NCC1CCCO1)N1CCN(c2ccc(Cl)c(Cl)c2)CC1 (configuration not stated) : reported inhibition = -2.84

Record summary for Cc1ccnc(NC(=O)c2ccc(Cl)c([N+](=O)[O-])c2)c1 : reported inhibition = 8.28

Record summary for Cc1cccc(S(=O)(=O)N2CN(CC3CCCO3)c3nc4ccccc4nc32)c1 (configuration not stated) : reported inhibition = 11.8

Record summary for CCOC(=O)c1sc(NC(=O)c2sc(C)nc2C)nc1C : reported inhibition = 34.6

Record summary for NS(=O)(=O)c1ccc(NC2=CC(c3ccc(F)cc3)N(c3ccc(S(N)(=O)=O)cc3)C2=O)cc1 (configuration not stated) : reported inhibition = 4.35

Origin of values: PubChem BioAssay AID588335
